# subjectOfTest: 1,4-dihydroxy-2-naphthoyl-CoA synthase (Mycobacterium tuberculosis, UniProt P9WNP5)
# Sequence (P9WNP5 whole entry): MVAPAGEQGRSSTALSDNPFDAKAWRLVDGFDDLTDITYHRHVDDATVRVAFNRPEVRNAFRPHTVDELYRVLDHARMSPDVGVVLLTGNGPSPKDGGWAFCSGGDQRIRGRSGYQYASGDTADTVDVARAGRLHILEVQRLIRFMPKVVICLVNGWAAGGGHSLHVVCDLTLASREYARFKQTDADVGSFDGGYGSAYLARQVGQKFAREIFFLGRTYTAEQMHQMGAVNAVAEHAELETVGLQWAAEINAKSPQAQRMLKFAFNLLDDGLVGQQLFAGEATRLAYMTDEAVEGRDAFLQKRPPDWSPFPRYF
measuredAttribute: pIC50
Remember the convention: pIC50 equals -log10 of concentration in molar.

{"recordSmiles": "COC(=O)/C=C1\\Nc2ccccc2OC1=O", "pIC50": 5.00}

Turning to the following compound.
For 1,4-dihydroxy-2-naphthoyl-CoA synthase (Mycobacterium tuberculosis, UniProt P9WNP5), give the measured pIC50 of the entry COC(=O)/C=C1\Nc2cc(F)ccc2OC1=O
4.57

----------
# Test system: Mycobacterium tuberculosis
# assayRemarks: Antibacterial activity against Mycobacterium tuberculosis H37Rv after 5 to 7 days by alamar blue assay
# Type: functional
Mark satisfied only when MIC stays strictly below 3 µg/mL. Values equal to the cut-off are not satisfied.

{"recordSmiles": "COC(=O)/C=C1\\Nc2c(C)cccc2OC1=O", "assignedClass": "not satisfied"}
{"recordSmiles": "O=C1Oc2cc(Cl)ccc2N/C1=C\\C(=O)c1ccccc1Cl", "assignedClass": "not satisfied"}
{"recordSmiles": "O=C1Oc2ccc(Cl)cc2N/C1=C\\C(=O)c1ccccc1Cl", "assignedClass": "not satisfied"}
{"recordSmiles": "COC(=O)/C=C1\\Nc2ccc(C)cc2OC1=O", "assignedClass": "not satisfied"}
{"recordSmiles": "Cc1ccc2c(c1)OC(=O)/C(=C/C(=O)c1ccccc1Cl)N2", "assignedClass": "not satisfied"}

A record lists COC(=O)/C=C1\Nc2cc([N+](=O)[O-])ccc2OC1=O . Is its MIC below 3 µg/mL?
not satisfied

----------
# subjectOfTest: 1,4-dihydroxy-2-naphthoyl-CoA synthase (Mycobacterium tuberculosis) (UniProt P9WNP5)
# assayRemarks: Inhibition of Mycobacterium tuberculosis MenB expressed in Escherichia coli BL21 (DE3) at 125 ug/ml by double-reciprocal plot analysis
measuredAttribute: inhibition (%)
Respond numerically; units are % and should not be typed.

Kindly indicate its recorded inhibition. Item: CCS(=O)(=O)c1ccc2c(c1)N/C(=C\C(=O)C(C)(C)C)C(=O)O2
60.3

Kindly indicate its recorded inhibition. Item: Cc1ccc2c(c1)N/C(=C\C(=O)CC(C)C)C(=O)O2
77.3

Kindly indicate its recorded inhibition. Item: CC(C)(C)/C(O)=C/c1nc2ccccc2oc1=O
68.4

Kindly indicate its recorded inhibition. Item: CC(C)CC(=O)/C=C1\Nc2cc(Cl)ccc2OC1=O
98

----------
# subjectOfTest: 1,4-dihydroxy-2-naphthoyl-CoA synthase (Mycobacterium tuberculosis)
# Sequence (P9WNP5 whole entry): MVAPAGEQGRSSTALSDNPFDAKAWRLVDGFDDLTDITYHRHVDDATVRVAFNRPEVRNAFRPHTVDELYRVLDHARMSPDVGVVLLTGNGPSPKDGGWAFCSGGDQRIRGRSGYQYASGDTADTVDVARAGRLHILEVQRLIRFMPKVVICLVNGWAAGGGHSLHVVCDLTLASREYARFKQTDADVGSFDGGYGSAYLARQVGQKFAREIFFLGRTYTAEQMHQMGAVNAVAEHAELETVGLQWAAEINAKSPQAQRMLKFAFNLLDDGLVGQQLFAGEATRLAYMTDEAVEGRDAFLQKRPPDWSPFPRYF
The following compounds are shown together with reported pIC50 values.
Remember the convention: pIC50 equals -log10 of concentration in molar.

Sample records with pIC50:
{"recordSmiles": "COC(=O)/C=C1\\Nc2ccc(C)cc2OC1=O", "subjectOfTest": "1,4-dihydroxy-2-naphthoyl-CoA synthase (Mycobacterium tuberculosis)", "pIC50": 4.74}
{"recordSmiles": "COC(=O)/C=C1\\Nc2ccc([N+](=O)[O-])cc2OC1=O", "subjectOfTest": "1,4-dihydroxy-2-naphthoyl-CoA synthase (Mycobacterium tuberculosis)", "pIC50": 4.69}
{"recordSmiles": "COC(=O)/C=C1\\Nc2c(C)cccc2OC1=O", "subjectOfTest": "1,4-dihydroxy-2-naphthoyl-CoA synthase (Mycobacterium tuberculosis)", "pIC50": 4.62}
{"recordSmiles": "COC(=O)/C=C1\\Nc2ccc(F)cc2OC1=O", "subjectOfTest": "1,4-dihydroxy-2-naphthoyl-CoA synthase (Mycobacterium tuberculosis)", "pIC50": 4.52}
{"recordSmiles": "COC(=O)/C=C1\\Nc2cc(Cl)ccc2OC1=O", "subjectOfTest": "1,4-dihydroxy-2-naphthoyl-CoA synthase (Mycobacterium tuberculosis)", "pIC50": 4.33}
{"recordSmiles": "CCS(=O)(=O)c1ccc2c(c1)N/C(=C\\C(=O)OC)C(=O)O2", "subjectOfTest": "1,4-dihydroxy-2-naphthoyl-CoA synthase (Mycobacterium tuberculosis)", "pIC50": 4.75}
{"recordSmiles": "COC(=O)/C=C1\\Nc2ccc(Cl)cc2OC1=O", "subjectOfTest": "1,4-dihydroxy-2-naphthoyl-CoA synthase (Mycobacterium tuberculosis)", "pIC50": 4.45}
{"recordSmiles": "COC(=O)/C=C1\\Nc2cc([N+](=O)[O-])ccc2OC1=O", "subjectOfTest": "1,4-dihydroxy-2-naphthoyl-CoA synthase (Mycobacterium tuberculosis)", "pIC50": 4.55}

Turning to the following compound.
Kindly indicate its recorded pIC50. Item: COC(=O)/C=C1\Nc2cc(C)ccc2OC1=O
4.64

----------
The following molecules are shown together with reported MIC values.
# Test system: Mycobacterium tuberculosis
# assayRemarks: Antibacterial activity against Mycobacterium tuberculosis H37Rv after 5 to 7 days by alamar blue assay
# Format: functional

Sample records with MIC:
{"recordSmiles": "O=C1Oc2ccccc2N/C1=C\\C(=O)c1ccccc1Cl", "MIC": "3.13 µg/mL"}
{"recordSmiles": "O=C1Oc2cc(F)ccc2N/C1=C\\C(=O)c1ccccc1Cl", "MIC": "1.56 µg/mL"}

Kindly indicate its recorded MIC. Item: CCS(=O)(=O)c1ccc2c(c1)N/C(=C\C(=O)OC)C(=O)O2
> 100 µg/mL

Kindly indicate its recorded MIC. Item: O=C1Oc2ccc(F)cc2N/C1=C\C(=O)c1ccccc1Cl
3.13 µg/mL

Kindly indicate its recorded MIC. Item: Cc1ccc2c(c1)N/C(=C\C(=O)c1ccccc1Cl)C(=O)O2
100 µg/mL

Kindly indicate its recorded MIC. Item: COC(=O)/C=C1\Nc2ccccc2OC1=O
0.64 µg/mL
